target: recombinant SARS-CoV-2 spike S1 RBD (R319-F541), C-terminal 6-His (SARS-CoV-2, UniProt P0DTC2 319-541); assay: sandwich dipstick, detector Ab5-AuNP
Readout Name: detection sensitivity
Kindly format the answer as number then unit.

GET /values?readout=detection sensitivity&item= 1035224 (antibody, V domains shown) VH: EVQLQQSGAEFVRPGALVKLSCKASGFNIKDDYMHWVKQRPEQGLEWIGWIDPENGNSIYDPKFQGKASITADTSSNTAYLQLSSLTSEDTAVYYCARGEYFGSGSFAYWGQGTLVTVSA VL: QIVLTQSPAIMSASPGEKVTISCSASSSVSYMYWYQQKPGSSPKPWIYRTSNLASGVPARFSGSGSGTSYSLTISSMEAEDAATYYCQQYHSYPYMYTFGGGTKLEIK 0.001 µg/mL
